Type: in vitro ADME
Settings: rat microsomes, incubation period of 60 min
Property: RLM (% remaining)
Write down the numeric answer in % remaining and omit the unit.

{"Compound": "O=C(Nc1ccc(Cl)c(S(=O)(=O)Nc2ccccc2Cl)c1)c1ccccn1 [Compound 13]", "Property": "RLM (% remaining)", "Recorded value": 0.05}
{"Compound": "O=C(Nc1ccc(S(=O)(=O)Nc2ccccc2Cl)c(Cl)c1)c1ccccn1 [Compound 11]", "Property": "RLM (% remaining)", "Recorded value": 0.02}
{"Compound": "COc1ccccc1NS(=O)(=O)c1ccc(NC(=O)c2ccccn2)cc1OC [Compound 10]", "Property": "RLM (% remaining)", "Recorded value": 0.05}

API: the following record is the query input.
[ask] Which RLM (% remaining) reading was recorded for the compound Cc1cc(C)c(NS(=O)(=O)c2ccc(NC(=O)c3ccccn3)cc2)c(C)c1 [Compound 5] ?
[reply] 25.8

* * *

Format: in vitro ADME
Details: human microsomes, incubation period of 60 min
Property: HLM (% remaining)
Write down the numeric answer in % remaining and omit the unit.

Observe how each entry below is paired with its result.
{"Compound": "CN(c1ccccc1Cl)S(=O)(=O)c1ccc(NC(=O)c2ccncn2)cc1 [Compound 9f]", "Recorded value": 2.5}
{"Compound": "COc1ccccc1NS(=O)(=O)c1ccc(NC(=O)c2ccccn2)cc1OC [Compound 10]", "Recorded value": 1.3}
{"Compound": "O=C(Nc1ccc(S(=O)(=O)Nc2ccccc2Cl)c(Cl)c1)c1ccccn1 [Compound 11]", "Recorded value": 0.63}

[ask] Which HLM (% remaining) reading was recorded for the compound O=C(Nc1ccc(Cl)c(S(=O)(=O)Nc2ccccc2Cl)c1)c1ccccn1 [Compound 13] ?
[reply] 11.9

[ask] Try this compound too: CN(c1ccccc1Cl)S(=O)(=O)c1ccc(NC(=O)c2nccs2)cc1 [Compound 9g]
[reply] 0.1

[ask] Try this compound too: O=C(Nc1ccc(S(=O)(=O)Nc2ccccc2Cl)cc1)c1nccs1 [Compound 9d]
[reply] 0.84

[ask] Try this compound too: O=C(Nc1ccc(S(=O)(=O)Nc2ccccc2Cl)cc1)c1ccccn1 [Compound 8b]
[reply] 0.02

* * *

Format: in vitro ADME
Details: rat microsomes, incubation period of 60 min
Rule for this label: y means RLM (% remaining) is less than 1 % remaining; n means RLM (% remaining) is at least 1 % remaining.

Here's what some known entries look like.
{"Smiles entry": "O=C(Nc1ccc(S(=O)(=O)Nc2ccccc2Cl)cc1)c1ccccn1", "Answer label": "y"}
{"Smiles entry": "CN(c1ccccc1Cl)S(=O)(=O)c1ccc(NC(=O)c2nccs2)cc1", "Answer label": "y"}
{"Smiles entry": "O=C(Nc1ccc(S(=O)(=O)Nc2ccccc2Cl)cc1)c1nccs1", "Answer label": "n"}
{"Smiles entry": "CN(c1ccccc1Cl)S(=O)(=O)c1ccc(NC(=O)c2ccncn2)cc1", "Answer label": "n"}

# evaluate next
[ask] # TODO verify RLM (% remaining) < 1 % remaining strictly for this compound: Cc1cc(C)c(NS(=O)(=O)c2ccc(NC(=O)c3ccco3)cc2)c(C)c1
[reply] n

* * *

Catalogue of PPB (h) (% free) readings, one per entry.
Type: in vitro ADME
Conditions: human protein binding
Write down the numeric answer in % free and omit the unit.

{"Smiles entry": "CN(c1ccccc1Cl)S(=O)(=O)c1ccc(NC(=O)c2ccncn2)cc1", "PPB (h) (% free)": 1.7}

[ask] Which PPB (h) (% free) reading was recorded for the compound O=C(Nc1ccc(S(=O)(=O)Nc2ccccc2Cl)cc1)c1nccs1 ?
[reply] 0.1

[ask] Try this compound too: O=C(Nc1ccc(S(=O)(=O)Nc2ccccc2Cl)cc1)c1ccccn1
[reply] 0.1

[ask] Try this compound too: Cc1cc(C)c(NS(=O)(=O)c2ccc(NC(=O)c3ccco3)cc2)c(C)c1
[reply] 2.2

[ask] Try this compound too: CN(c1ccccc1Cl)S(=O)(=O)c1ccc(NC(=O)c2nccs2)cc1
[reply] 0.5

[ask] Try this compound too: COc1ccccc1NS(=O)(=O)c1ccc(NC(=O)c2ccccn2)cc1OC
[reply] 0.3

[ask] Try this compound too: Cc1cc(C)c(NS(=O)(=O)c2ccc(NC(=O)c3ccccn3)cc2)c(C)c1
[reply] 0.1
